These measurements were taken from paper PMC12860872.

experiment: Extrapolated human dosimetry (OLINDA/EXM, ICRP-89 phantoms); conditions: ICRP 89 Adult Male, extrapolated; in mSv/MBq (unit assumed)
The entries below are paired with their reported Effective dose (average).
endpoint_name: Effective dose (average)

{"molecule": "N#C[C@@H]1CC(F)(F)CN1C(=O)CNC(=O)c1ccnc2ccc(OCCCCNC(=O)CC[C@H](NC(=O)CN3CCN(CC(=O)[O-])CCN(CC(=O)[O-])CCN(CC(=O)[O-])CC3)C(=O)NCCCCOc3ccc4nccc(C(=O)NCC(=O)N5CC(F)(F)C[C@H]5C#N)c4c3)cc12.[177Lu+3] [[^177Lu]Lu-DO3A.Glu.(FAPI)2]", "reported_value": "2.56E-02"}
{"molecule": "N#C[C@@H]1CC(F)(F)CN1C(=O)CNC(=O)c1ccnc2ccc(OCCCCNC(=O)CC[C@H](NC(=O)CCC(C(=O)O)N3CCN(CC(=O)[O-])CCN(CC(=O)[O-])CCN(CC(=O)[O-])CC3)C(=O)NCCCCOc3ccc4nccc(C(=O)NCC(=O)N5CC(F)(F)C[C@H]5C#N)c4c3)cc12.[161Tb+3] (stereo partly shown) [[^161Tb]Tb-DOTAGA.Glu.(FAPI)2]", "reported_value": "4.69E-02"}
{"molecule": "N#C[C@@H]1CC(F)(F)CN1C(=O)CNC(=O)c1ccnc2ccc(OCCCCNC(=O)CC[C@H](NC(=O)CN3CCN(CC(=O)[O-])CCN(CC(=O)[O-])CCN(CC(=O)[O-])CC3)C(=O)NCCCCOc3ccc4nccc(C(=O)NCC(=O)N5CC(F)(F)C[C@H]5C#N)c4c3)cc12.[161Tb+3] [[^161Tb]Tb-DO3A.Glu.(FAPI)2]", "reported_value": "2.91E-02"}
{"molecule": "N#C[C@@H]1CC(F)(F)CN1C(=O)CNC(=O)c1ccnc2ccc(OCCCCNC(=O)CC[C@H](NC(=O)CCC(C(=O)O)N3CCN(CC(=O)[O-])CCN(CC(=O)[O-])CCN(CC(=O)[O-])CC3)C(=O)NCCCCOc3ccc4nccc(C(=O)NCC(=O)N5CC(F)(F)C[C@H]5C#N)c4c3)cc12.[177Lu+3] (stereo partly shown) [[^177Lu]Lu-DOTAGA.Glu.(FAPI)2]", "reported_value": "3.40E-02"}
